Data origin: a polymer gas permeability compilation

property_name: CH4 permeability (Barrer)

[[record]]
compound = "*CCCCO* (repeat unit)"
scale_unit = "Barrer"
assay_result = 22.5

[[record]]
compound = "*c1ccc(C(c2ccc(-n3c(=O)c4cc5oc6cc7c(cc6oc5cc4c3=O)C3(CC(C)(C)c4cc5oc6cc8c(=O)n(*)c(=O)c8cc6oc5cc43)CC7(C)C)cc2)(C(F)(F)F)C(F)(F)F)cc1 (repeat unit)"
scale_unit = "Barrer"
assay_result = 27

[[record]]
compound = "*Oc1ccc(C(C)(C)c2ccc(C(C)(C)c3ccc(Oc4ccc(S(=O)(=O)c5ccc(*)cc5)cc4)cc3)cc2)cc1 (repeat unit)"
scale_unit = "Barrer"
assay_result = 0.34

[[record]]
compound = "*Oc1c(Br)cc(C(c2cc(Br)c(OC(=O)c3cc(C(*)=O)cc(C(C)(C)C)c3)c(Br)c2)(C(F)(F)F)C(F)(F)F)cc1Br (repeat unit)"
scale_unit = "Barrer"
assay_result = 3.36


----------
property_name: N2 permeability (Barrer)

[[record]]
compound = "*c1ccc2c(-c3c(O)ccc4cc(N5C(=O)c6ccc(C(=O)c7ccc8c(c7)C(=O)N(*)C8=O)cc6C5=O)ccc34)c(O)ccc2c1 (repeat unit)"
property_name = "N2 permeability"
assay_result = 0.11

[[record]]
compound = "*/C=C/c1ccc(*)cc1[Si](C)(C)CCCCCCCCCCCCCCCCCC (repeat unit)"
property_name = "N2 permeability"
assay_result = 4.5

[[record]]
compound = "*Oc1c(Br)cc(C2(c3cc(Br)c(OC(=O)c4cc(C(*)=O)cc(C(C)(C)C)c4)c(Br)c3)OC(=O)c3ccccc32)cc1Br (repeat unit)"
property_name = "N2 permeability"
assay_result = 1.19

[[record]]
compound = "*Oc1c(C)cc(C(C)(C)c2cc(C)c(Oc3ccc(S(=O)(=O)c4ccc(*)cc4)cc3)c(C)c2)cc1C (repeat unit)"
property_name = "N2 permeability"
assay_result = 1.06


----------
property_name: CH4 permeability (Barrer)

[[record]]
compound = "*Oc1ccc(C(C)(C)c2ccc(OC(=O)c3ccc(C(=O)Oc4cc(-c5cc(*)cc6ccccc56)c5ccccc5c4)cc3)cc2)cc1 (repeat unit)"
assay_result = 0.471

[[record]]
compound = "*Nc1cccc(NC(=O)c2ccc(C(c3ccc(C(*)=O)cc3)(C(F)(F)F)C(F)(F)F)cc2)c1 (repeat unit)"
assay_result = 0.24

[[record]]
compound = "*Oc1cc2c(cc1O*)C1(c3cc(C)c(C)cc3-2)c2cc(C)c(C)cc2-c2cc3c(cc21)Oc1c(C#N)c(*)c(*)c(C#N)c1O3 (repeat unit)"
assay_result = 1100

[[record]]
compound = "*Oc1c(Br)cc(C(C)(C)c2cc(Br)c(OC(=O)c3cccc(C(*)=O)c3)c(Br)c2)cc1Br (repeat unit)"
assay_result = 0.142

[[record]]
compound = "*c1ccc(Cc2ccc(N3C(=O)c4ccc(-c5ccc6c(c5)C(=O)N(*)C6=O)cc4C3=O)cc2Cl)c(Cl)c1 (repeat unit)"
assay_result = 0.0055

[[record]]
compound = "*C1C(*)C2CC1C1C2C([Si](C)(C)C)C1[Si](C)(C)C (repeat unit)"
assay_result = 3310

[[record]]
compound = "*CC(*)c1ccc([Si](C)(C)C)cc1 (repeat unit)"
assay_result = 34


----------
# key: entry, value: H2 permeability
property_name: H2 permeability (Barrer)

[[record]]
molecule = "*Oc1ccc(Oc2ccc(C(=O)c3ccc(*)cc3)cc2)c(-c2cc(C)cc(C)c2)c1 (repeat unit)"
assay_result = 4.6

[[record]]
molecule = "*Oc1cc2c(cc1O*)C1(CC2(C)C)CC(C)(C)c2cc3c(cc21)Oc1c(C#N)c(*)c(*)c(C#N)c1O3 (repeat unit)"
assay_result = 2280

[[record]]
molecule = "*Nc1ccc(S(=O)(=O)c2ccc(NC(=O)c3cccc(C(*)=O)c3)cc2)cc1 (repeat unit)"
assay_result = 4.3

[[record]]
molecule = "*C(=O)c1ccc(C2(c3ccc(C(=O)c4ccc(Oc5ccc(C(=O)c6ccc(C(=O)c7ccc(Oc8ccc(*)cc8)cc7)cc6)cc5)cc4)cc3)OC(=O)c3ccccc32)cc1 (repeat unit)"
assay_result = 7.5

